Values were extracted from patent US20100298141A1.

We begin with a simple list: items and their reported Quackgrass plant response rating.
Test system: quackgrass
Assay: Test F preemergence test
Format: in vivo, Elytrigia repens
Conditions: 125 g ai/ha, preemergence, scale 0 to 100

>  <COMPOUND>
CCn1nc(C(F)(F)F)c(CS(=O)(=O)c2cccc[n+]2[O-])c1OCC(F)(F)F

>  <Quackgrass plant response rating>
100

$$$$
>  <COMPOUND>
Cn1nc(C(F)(F)F)c(C[S+]([O-])c2ccc(Cl)c[n+]2[O-])c1OCC(F)F (stereo not drawn)

>  <Quackgrass plant response rating>
95

$$$$
>  <COMPOUND>
Cc1cc[n+]([O-])c(S(=O)(=O)Cc2c(C(F)(F)F)nn(C)c2OCC(F)(F)F)c1

>  <Quackgrass plant response rating>
95

$$$$
>  <COMPOUND>
CC(Oc1c(C[S+]([O-])c2ccc(Cl)c[n+]2[O-])c(C(F)(F)F)nn1C)C(F)(F)F (stereo not drawn)

>  <Quackgrass plant response rating>
90

$$$$
>  <COMPOUND>
Cn1nc(C(F)(F)F)c(C[S+]([O-])c2cccc[n+]2[O-])c1OCC(F)(F)F (racemic)

>  <Quackgrass plant response rating>
95

$$$$
>  <COMPOUND>
Cc1cc[n+]([O-])c(S(=O)(=O)C(Cl)c2c(C(F)(F)F)nn(C)c2Cl)c1 (racemic)

>  <Quackgrass plant response rating>
60

$$$$

* * *

Measured Goosegrass plant response rating of individual entries
Test system: goosegrass
Experiment: Test F preemergence test
Format: in vivo, Eleusine indica
Settings: 62 g ai/ha, Preemergence; scale 0 to 100

>  <COMPOUND>
Cc1cc[n+]([O-])c(S(=O)(=O)Cc2c(C(F)(F)F)nn(C)c2OCC(F)(F)F)c1 [Compound 31]

>  <MEASURED ON>
goosegrass

>  <Goosegrass plant response rating>
100

$$$$
>  <COMPOUND>
Cn1nc(C(F)(F)F)c(C[S+]([O-])c2cccc[n+]2[O-])c1OC(F)F (stereo not shown) [Compound 3]

>  <MEASURED ON>
goosegrass

>  <Goosegrass plant response rating>
98

$$$$
>  <COMPOUND>
CCn1nc(C(F)(F)F)c(CS(=O)(=O)c2cccc[n+]2[O-])c1OCC(F)(F)F [Compound 63]

>  <MEASURED ON>
goosegrass

>  <Goosegrass plant response rating>
98

$$$$
>  <COMPOUND>
Cn1nc(C(F)(F)C(F)(F)F)c(C[S+]([O-])c2cccc[n+]2[O-])c1OCC(F)(F)F (stereo not shown) [Compound 79]

>  <MEASURED ON>
goosegrass

>  <Goosegrass plant response rating>
98

$$$$

* * *

Form field: Plant response rating, Morningglory (one value per entry).
Test system: morningglory
Experiment: Test C pre-/postemergence test
Format: in vivo, Ipomoea coccinea
Settings: Postemergence, 62 g ai/ha; scale 0 to 100, 0 no effect, 100 complete control

>  <COMPOUND>
Cn1nc(C(F)(F)F)c(C[S+]([O-])c2ccc(Cl)c[n+]2[O-])c1OC(F)F (stereo not drawn)

>  <Plant response rating, Morningglory>
50

$$$$
>  <COMPOUND>
CC(c1c(C(F)(F)F)nn(C)c1Cl)S(=O)(=O)c1ccc(Cl)c[n+]1[O-] (racemic)

>  <Plant response rating, Morningglory>
0

$$$$
>  <COMPOUND>
Cn1nc(C(F)(F)F)c(C[S+]([O-])c2ccc(Cl)c[n+]2[O-])c1OCC(F)(F)F (racemic)

>  <Plant response rating, Morningglory>
0

$$$$
>  <COMPOUND>
CC(c1c(C(F)(F)F)nn(C)c1OC(F)F)S(=O)(=O)c1cccc[n+]1[O-] (stereo not drawn)

>  <Plant response rating, Morningglory>
5

$$$$
>  <COMPOUND>
CCn1nc(C(F)(F)F)c(CS(=O)(=O)c2cc(C)cc[n+]2[O-])c1OCC(F)(F)F

>  <Plant response rating, Morningglory>
0

$$$$
>  <COMPOUND>
Cc1cc[n+]([O-])c([S+]([O-])Cc2c(C(F)(F)F)nn(C)c2OC(F)F)c1 (stereo not drawn)

>  <Plant response rating, Morningglory>
40

$$$$
